Origin of measurements: patent US20140171357A1

System: S. pneumoniae (22)
TEST_DETAILS: MIC broth microdilution, S. pneumoniae
CONDITION_DESCRIPTION: S. pneumoniae (22); MHB + lysed horse blood
Answer each item with its documented MIC 90%.
One number for each entry, in µg/mL.

Some molecules with recorded MIC 90%:
| MOLECULE | MIC 90% (µg/mL) |
| --- | --- |
| CNC(CC(C)C)C(=O)NC1C(=O)NC(CC(N)=O)C(=O)NC2C(=O)NC3C(=O)NC(C(=O)NC(C(=O)NCCOCCOCCN)c4cc(O)cc(O)c4-c4cc3ccc4O)C(O)c3ccc(c(Cl)c3)Oc3cc2cc(c3OC2OC(CO)C(O)C(O)C2OC2CC(C)(NCc3ccc(OCc4ccc(Cl)c(Cl)c4)cc3)C(O)C(C)O2)Oc2ccc(cc2Cl)C1O (stereo not drawn) | 0.06 |
| CNC(CC(C)C)C(=O)NC1C(=O)NC(CC(N)=O)C(=O)NC2C(=O)NC3C(=O)NC(C(=O)NC(C(=O)O)c4cc(O)c(CNCCOCCOCCN)c(O)c4-c4cc3ccc4O)C(O)c3ccc(c(Cl)c3)Oc3cc2cc(c3OC2OC(CO)C(O)C(O)C2OC2CC(C)(NCc3ccc(-c4ccc(Cl)cc4)cc3)C(O)C(C)O2)Oc2ccc(cc2Cl)C1O (stereo not drawn) | 0.06 |
| CNC(CC(C)C)C(=O)NC1C(=O)NC(CC(N)=O)C(=O)NC2C(=O)NC3C(=O)NC(C(=O)NC(C(=O)O)c4cc(O)c(CNCCOCCOCC[N+](C)(C)C)c(O)c4-c4cc3ccc4O)C(O)c3ccc(c(Cl)c3)Oc3cc2cc(c3OC2OC(CO)C(O)C(O)C2OC2CC(C)(NCc3ccc(OCc4ccc(Cl)c(Cl)c4)cc3)C(O)C(C)O2)Oc2ccc(cc2Cl)C1O (stereo not drawn) | 0.06 |
| CNC(CC(C)C)C(=O)NC1C(=O)NC(CC(N)=O)C(=O)NC2C(=O)NC3C(=O)NC(C(=O)NC(C(=O)O)c4cc(O)c(CNCCOCCOCCN(C)C)c(O)c4-c4cc3ccc4O)C(O)c3ccc(c(Cl)c3)Oc3cc2cc(c3OC2OC(CO)C(O)C(O)C2OC2CC(C)(NCc3ccc(-c4ccc(Cl)cc4)cc3)C(O)C(C)O2)Oc2ccc(cc2Cl)C1O (stereo not drawn) | 0.06 |

Items follow; give MIC 90% for each.
1. CNC(CC(C)C)C(=O)NC1C(=O)NC(CC(N)=O)C(=O)NC2C(=O)NC3C(=O)NC(C(=O)NC(C(=O)O)c4cc(O)c(CNCCOCCOCCN)c(O)c4-c4cc3ccc4O)C(O)c3ccc(c(Cl)c3)Oc3cc2cc(c3OC2OC(CO)C(O)C(O)C2OC2CC(C)(NCc3ccc(OCc4ccc(Cl)c(Cl)c4)cc3)C(O)C(C)O2)Oc2ccc(cc2Cl)C1O (stereo not drawn)
2. CCCCCCCCCCNCCNC1(C)CC(OC2C(Oc3c4cc5cc3Oc3ccc(cc3Cl)C(O)C3NC(=O)C(NC(=O)C5NC(=O)C(CC(N)=O)NC(=O)C(NC(=O)C(CC(C)C)NC)C(O)c5ccc(c(Cl)c5)O4)c4ccc(O)c(c4)-c4c(O)cc(O)cc4C(C(=O)NCCOCCOCCN)NC3=O)OC(CO)C(O)C2O)OC(C)C1O (stereo not drawn)

Output:
0.06
0.03
